Assay: melting temperature; melt of duplexes
Details: sodium 0.0675 M; strand 1 µM
Measure name: Tm (°C)
Give bare numbers, in °C.

Reference set, count: 5
- CGACGTGCGCCATGTGCTG+CAGCACATGGCGCACGTCG (((((((((((((((((((+))))))))))))))))))): 68.7
- CGACGTGCCCGATGTGCTG+CAGCACATCCCGCACGTCG ((((((((..(((((((((+)))))))))..)))))))): 51.9
- CGACGTGCAAAATGTGCTG+CAGCACATTCCGCACGTCG ((((((((..(((((((((+)))))))))..)))))))): 50.6
- CGACGTGCGACATGTGCTG+CAGCACATCGTGCACGTCG ((((((((...((((((((+))))))))...)))))))): 47.6
- CGACGTGCCTAATGTGCTG+CAGCACATGTAGCACGTCG ((((((((...((((((((+))))))))...)))))))): 51.8

Give Tm for each of the items listed below.
1. CGACGTGCCTGATGTGCTG+CAGCACATAATGCACGTCG ((((((((.(.((((((((+)))))))).).))))))))
2. CGACGTGCCAGATGTGCTG+CAGCACATTGAGCACGTCG ((((((((...((((((((+))))))))...))))))))

OUTPUT:
1. 49.9
2. 52.1

----------
Assignment: determine reported Tm for the given substances.
Assay: melting temperature; melt of duplexes
Details: sodium 0.0675 M; strand 1 µM
Numbers only, in °C.

• CGACGTGCGTTATGTGCTG+CAGCACATAGCGCACGTCG (((((((((.(((((((((+))))))))).))))))))) = 58.3
• CGACGTGCTAAATGTGCTG+CAGCACATCGCGCACGTCG ((((((((...((((((((+))))))))...)))))))) = 47.5
• CGACGTGCTATATGTGCTG+CAGCACATCACGCACGTCG ((((((((...((((((((+))))))))...)))))))) = 47.9
• CGACGTGCACTATGTGCTG+CAGCACATACGGCACGTCG ((((((((..(((((((((+)))))))))..)))))))) = 46
• CGACGTGCCGTATGTGCTG+CAGCACATTTCGCACGTCG ((((((((...((((((((+))))))))...)))))))) = 48.5
• CGACGTGCAACATGTGCTG+CAGCACATAGGGCACGTCG ((((((((...((((((((+))))))))...)))))))) = 49.1

Below: the item to evaluate.
INPUT: Give the measured Tm of CGACGTGCCTTATGTGCTG+CAGCACATGAAGCACGTCG ((((((((.(.((((((((+)))))))).).)))))))) .
OUTPUT: 50.5

----------
Test: melting temperature; melt of duplexes
Settings: sodium 0.0675 M; strand 1 µM
Measure name: Tm

Recorded Tm, per entry:
* CGACGTGCCACATGTGCTG+CAGCACATCGTGCACGTCG ((((((((...((((((((+))))))))...)))))))) | 46.3 °C
* CGACGTGCCCCATGTGCTG+CAGCACATAGAGCACGTCG ((((((((.(.((((((((+)))))))).).)))))))) | 48.7 °C
* CGACGTGCCCAATGTGCTG+CAGCACATTCGGCACGTCG (((((((((.(((((((((+))))))))).))))))))) | 55.8 °C
* CGACGTGCGATATGTGCTG+CAGCACATAAGGCACGTCG ((((((((..(((((((((+)))))))))..)))))))) | 52 °C
* CGACGTGCTGCATGTGCTG+CAGCACATTCAGCACGTCG ((((((((((.((((((((+)))))))).)))))))))) | 57 °C
* CGACGTGCGTCATGTGCTG+CAGCACATGACGCACGTCG (((((((((((((((((((+))))))))))))))))))) | 66.4 °C
* CGACGTGCATGATGTGCTG+CAGCACATAGGGCACGTCG ((((((((...((((((((+))))))))...)))))))) | 50.1 °C
* CGACGTGCCGGATGTGCTG+CAGCACATACGGCACGTCG ((((((((((.((((((((+)))))))).)))))))))) | 63.8 °C

Could I get Tm for every one of these entries?
1. CGACGTGCAATATGTGCTG+CAGCACATGCTGCACGTCG (((((((((..((((((((+))))))))..)))))))))
2. CGACGTGCCGGATGTGCTG+CAGCACATGACGCACGTCG ((((((((...((((((((+))))))))...))))))))
3. CGACGTGCCGCATGTGCTG+CAGCACATTCTGCACGTCG ((((((((.(.((((((((+)))))))).).))))))))

OUTPUT:
1. 50.7 °C
2. 46.3 °C
3. 48.8 °C
